- Test system: TCCSUP
- TEST DESCRIPTION: Cell Titer Glo 2.0 viability, prexasertib alone or with gemcitabine, three days (Example 11)
- Format: cell-based
- EXPERIMENTAL CONDITIONS: Homo sapiens, TCC-SUP, 72 h, gemcitabine 0 nM, read-out: Prexasertib Absolute IC50
- Procedure: The present Example provides experimental evidence that treatment with gemcitabine sensitizes human cancer cell lines to treatment with prexasertib. […] After three days of treatment, cell viability relative to DMSO control was assessed using Cell Titer Glo 2.0 (Promega). […]
ASSAY READOUT: IC50 (nM)

>  <MOLECULE>
COc1cccc(OCCCN)c1-c1cc(Nc2cnc(C#N)cn2)n[nH]1 [prexasertib]

>  <ASSAY READOUT>
IC50

>  <RESULT UNIT>
nM

>  <MEASURED>
2.8

$$$$
